Ref: PubChem BioAssay

measurement-target: Calmodulin-1 (Homo sapiens)
assay-comment: calcium-bound CALM1 binders on microarrays, profiling panel, artefact control for SMM control-protein annotation, biochemical, small-molecule microarray, Cy5-labelled CALM1, plus calcium (AID 1112);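 also: score merges spot fluorescence with signal to noise from triplicate slides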
setup-conditions: Cy5-CALM1 binding fluorescence, higher = more signal

# molecular-string, measurement-target, composite z-score
records = [
    ("COc1ccc([Si](C)(C)[C@H]2[C@H](CC(=O)N(CCO)Cc3ccccc3)O[C@@]3(C(=O)N(c4ccccc4)c4ccccc43)[C@@H]2C)cc1", "Calmodulin-1 (Homo sapiens)", -0.0244),
    ("COC(=O)[C@H]1N=C(c2ccc(OCCCO)cc2)O[C@H]1c1ccccc1N=[N+]=[N-]", "Calmodulin-1 (Homo sapiens)", 0.28),
    ("COC(=O)C(CC#Cc1ccc2c(c1)[C@]1(C(=O)N2)[C@H](C(=O)NC[C@H](O)c2ccccc2)[C@H]2C(=O)O[C@H](c3ccccc3)[C@H](c3ccccc3)N2[C@@H]1c1ccc(O)cc1)C(=O)OC", "Calmodulin-1 (Homo sapiens)", -0.327),
    ("COC(=O)Cn1c(C(=O)N(C)C)cc2c1C[C@H]1CN(C(=O)c3ccccc3)[C@@](Cc3ccccc3)(C(=O)OC)[C@@H]21", "Calmodulin-1 (Homo sapiens)", -0.198),
    ("COc1cccc(C)c1NC(=O)O[C@H]1[C@H](OC(=O)Nc2ccccc2)[C@@H](OC(=O)Nc2ccccc2)[C@@H](OC)O[C@@H]1CO", "Calmodulin-1 (Homo sapiens)", -0.271),
    ("COc1ccc([Si](C)(C)[C@H]2[C@H](CC(=O)N(CCO)Cc3ccccc3)O[C@@]3(C(=O)N(Cc4cccc(N5CCCCC5=O)c4)c4ccccc43)[C@@H]2C)cc1", "Calmodulin-1 (Homo sapiens)", 0.117),
    ("O=C(NC1CC1)[C@@H]1c2ccccc2C(=O)N(C2CCCCC2)[C@H]1c1ccc(CO)cc1", "Calmodulin-1 (Homo sapiens)", 0.109),
    ("COCCOC(=O)N1C(=O)[C@@]2(c3cc(C#CCCO)ccc31)[C@H](c1ccc(O)cc1)N1[C@H](c3ccccc3)[C@H](c3ccccc3)OC(=O)[C@H]1[C@@H]2C(=O)NC[C@H](O)c1ccccc1", "Calmodulin-1 (Homo sapiens)", 0.0658),
    ("COC(=O)C(CC#Cc1ccc2c(c1)[C@]1(C(=O)N2)[C@H](C(=O)N2CCN(c3ncccn3)CC2)[C@H]2C(=O)O[C@H](c3ccccc3)[C@H](c3ccccc3)N2[C@@H]1c1ccc(O)cc1)C(=O)OC", "Calmodulin-1 (Homo sapiens)", 1.36),
    ("O=C1O[C@H](c2ccccc2)[C@H](c2ccccc2)N2[C@H]1[C@@H](C(=O)Nc1nc3ccccc3s1)[C@]1(C(=O)Nc3ccccc31)[C@H]2c1ccccc1OCCO", "Calmodulin-1 (Homo sapiens)", 0.736),
    ("[N-]=[N+]=NCc1ccccc1[C@H]1OC(c2ccc(OCCCO)cc2)=N[C@@]1(CCS(=O)(=O)c1ccccc1)C(=O)O", "Calmodulin-1 (Homo sapiens)", -0.331),
    ("Cc1ccc(S[C@]2(C(=O)NCc3ccccc3)CC(=O)N(Cc3ccccc3Cl)[C@@H]2c2ccc(CO)cc2)cc1", "Calmodulin-1 (Homo sapiens)", 0.273),
    ("COCCCNC(=O)[C@]1(Cc2ccccc2N=[N+]=[N-])N=C(c2ccc(OCCCO)cc2)O[C@@H]1c1ccccc1", "Calmodulin-1 (Homo sapiens)", 0.908),
]

---

measurement-target: Homeobox protein Hox-A13 (Mus musculus)
assay-comment: inhibitors of HoxA13-DNA binding, primary screen, biochemical, fluorescence polarization, labeled oligonucleotide (AID 1185)
setup-conditions: 15 min, higher = more signal, called active from +8 up or from −8 down
z-score vs 0.3: at or above is class 1, below is class 0.

# compound, measurement-target, group-label
rows = [
    ("COC(=O)C(CC#Cc1ccc2c(c1)[C@]1(C(=O)N2)[C@H](C(=O)N2CCN(c3ncccn3)CC2)[C@H]2C(=O)O[C@H](c3ccccc3)[C@H](c3ccccc3)N2[C@@H]1c1ccc(O)cc1)C(=O)OC", "Homeobox protein Hox-A13 (Mus musculus)", "class 0"),
    ("COCCOC(=O)N1C(=O)[C@@]2(c3cc(C#CCC(C(=O)OC)C(=O)OC)ccc31)[C@H](C(=O)N1CCc3cc(OC)c(OC)cc3C1)[C@H]1C(=O)O[C@H](c3ccccc3)[C@H](c3ccccc3)N1[C@@H]2c1ccccc1OCCO", "Homeobox protein Hox-A13 (Mus musculus)", "class 1"),
    ("CCOC(=O)C1=CCC(c2cccn2C(=O)OC(C)(C)C)N(S(=O)(=O)c2ccc(C)cc2)C1 (stereo unspecified)", "Homeobox protein Hox-A13 (Mus musculus)", "class 1"),
    ("O=C(NCCN1CCOCC1)[C@@H]1c2ccccc2C(=O)N(CC23CC4CC(CC(C4)C2)C3)[C@H]1c1ccc(CO)cc1", "Homeobox protein Hox-A13 (Mus musculus)", "class 0"),
    ("O=C1C2C=CC(C(O)c3ccccn3)N(Nc3ccc([N+](=O)[O-])cc3)C2C(=O)N1c1ccccc1 (stereo unspecified)", "Homeobox protein Hox-A13 (Mus musculus)", "class 0"),
    ("C=C(C(=O)CC[C@@H](OC(=O)c1cccnc1)c1cccc(OCCO)c1)C(C)C", "Homeobox protein Hox-A13 (Mus musculus)", "class 0"),
]

---

measurement-target: Fibroblast growth factor 10 (Homo sapiens) (UniProt O15520)
Sequence (O15520 whole entry, looked up): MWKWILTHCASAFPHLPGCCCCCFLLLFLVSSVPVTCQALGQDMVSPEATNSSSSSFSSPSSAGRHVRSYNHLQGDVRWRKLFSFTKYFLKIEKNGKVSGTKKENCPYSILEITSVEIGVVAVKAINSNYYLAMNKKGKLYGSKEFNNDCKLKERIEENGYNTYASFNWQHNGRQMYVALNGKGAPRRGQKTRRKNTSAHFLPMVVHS
assay-comment: FGF10 binders on small-molecule microarrays, primary screen, biochemical, small-molecule microarray, 635 nm fluorescence (AID 1102)
setup-conditions: FGF10 binding, fluorescence 635 nm, higher = more signal
Quick list: composite z-score per entry.

# molecule, composite z-score
measured = [
    ("CC(C)c1ccc(NN2C(C(O)c3ccccc3)C=CC3C(=O)N(c4ccccc4)C(=O)C32)cc1 (stereo not given)", 0.715),
    ("C=CCN1C(=O)[C@@]2(O[C@@H](CCO)[C@H]([Si](C)(C)c3ccc(OC)cc3)[C@H]2C)c2cc(N3CCCCC3=O)ccc21", 0.839),
    ("O=C1O[C@H](c2ccccc2)[C@H](c2ccccc2)N2[C@H]1[C@@H](C(=O)O)[C@]1(C(=O)Nc3ccc(C#CC4(O)CCCCCC4)cc31)[C@H]2c1ccccc1OCCO", 1.02),
    ("Cc1cccc([C@H]2C[C@H]3C(Br)=C[C@@]2(CO)C(=O)[C@]32CO2)c1", 1.01),
    ("C=C(COC)C(=O)CC[C@@H](OC(=O)c1ccccc1-c1ccccc1C(=O)O)c1ccccc1OCCO", 1.65),
    ("[N-]=[N+]=NCc1ccccc1[C@H]1OC(c2ccc(OCCCO)cc2)=N[C@@]1(CCS(=O)(=O)c1ccccc1)C(=O)NCCN1CCOCC1", 1.38),
    ("C=CC[C@]1(C(=O)NCC(O)CO)N=C(c2ccc(OCCCO)cc2)O[C@H]1c1ccccc1CN=[N+]=[N-] (stereo not given in full)", 0.722),
    ("CC[C@@H](O[Si](C#C[Si](C(C)C)(C(C)C)C(C)C)(C(C)C)C(C)C)c1cn([C@H](CO)Cc2ccccc2)nn1", 0.675),
    ("COC(=O)[C@@]1(Cc2ccc(OC)cc2)[C@H]2c3cc(C(=O)N(C)C)n(Cc4c(CO)[nH]cc(C)c4=O)c3C[C@H]2CN1C(=O)c1ccccc1", -0.17),
    ("C=C(CC1([C@@H](NP(=O)(c2ccccc2)c2ccccc2)[C@H]2C[C@@H]2CCCC)CC1)c1cccc(OC)c1", 0.158),
    ("COc1c(C)cc(-c2nc(-c3ccccc3)c3c(c2C)CO[Si]3(C(C)C)C(C)C)cc1C", 0.295),
    ("C=CCNC(=O)[C@H]1[C@@H]2C(=O)O[C@@H](c3ccccc3)[C@@H](c3ccccc3)N2[C@@H](c2ccc(OCCO)cc2)[C@]12C(=O)Nc1ccc(C#Cc3ccc(OC)cc3)cc12", 1.23),
    ("CC(C)(C)OC(=O)CC[C@@]1(C(=O)N2CCOCC2)N=C(c2ccc(OCCCO)cc2)O[C@@H]1c1ccccc1CN=[N+]=[N-]", 1.28),
    ("C=C(C)C1CN([C@H](CO)c2ccccc2)C(=O)/C1=C\\c1ccccc1 (stereo not given in full)", 0.716),
    ("CC(C)(C)OC(=O)N1[C@@H](C=C(Br)Br)COC1(C)C", 0.382),
]

---

assay-comment: basal S. cerevisiae growth modulation, no modifier, primary screen, OD600, strain BY4716, 24 h, basal condition (AID 1173)
setup-conditions: OD600, 24 h, higher = more signal, called active from +8 up or from −8 down
experimental-endpoint: z-score

# molecule, reported-value
data = [
    ("Cc1cccc([C@H]2C[C@H]3C(Br)=C[C@@]2(CO)C(=O)[C@]32CO2)c1", -5.63),
    ("O=C1O[C@H](c2ccccc2)[C@H](c2ccccc2)N2[C@H]1[C@@H](C(=O)O)[C@]1(C(=O)Nc3ccccc31)[C@H]2c1ccc(OCCO)cc1", -0.302),
    ("C=C(C(=O)CC[C@@H](OC(=O)c1ccccc1-c1ccccc1C(=O)O)c1ccc(OCCO)cc1)C(C)C", -1.3),
    ("COc1ccc([Si](C)(C)[C@H]2[C@H](CC(=O)N(CCO)Cc3ccccc3)O[C@@]3(C(=O)N(Cc4cccc(N5CCCCC5=O)c4)c4ccccc43)[C@@H]2C)cc1", -0.0548),
    ("O=C1c2ccccc2[C@@]2(Cc3ccccc3N(CC(F)(F)F)C2=O)[C@H](c2ccc(CO)cc2)N1Cc1ccccc1", 0.714),
    ("CCCCC(=C=CC[C@H](O)c1ccccc1OCCO)CCO", -1.3),
    ("COC(=O)C[C@H]1O[C@]2(C(=O)N(C)c3ccccc32)[C@@H](C)[C@@H]1[Si](C)(C)c1ccccc1", -2.07),
    ("COCCOC(=O)N1C(=O)[C@@]2(c3cc(C#CC4=CCCCC4)ccc31)[C@H](C(=O)N1CCCCCCC1)[C@H]1C(=O)O[C@H](c3ccccc3)[C@H](c3ccccc3)N1[C@@H]2c1ccccc1OCCO", 0.615),
    ("COC(=O)[C@@]1(Cc2ccc(F)cc2)[C@H]2c3cc(C(=O)N4CCCC4)n(Cc4ccc(C(F)(F)F)nc4)c3C[C@H]2CN1C(=O)c1ccccc1", 1.12),
    ("COC(=O)[C@H](Cc1ccccc1)N1CC(C)(OC)O[C@@H](Cc2ccccc2)[C@H]1/C=C/C1CC1 (stereo partly drawn)", -0.968),
    ("CN1C2C=C(c3ccc(CO)cc3)C(C3C(=O)N(C(N)=O)C(=O)C32)C1C1CC1 (stereo not drawn)", 1.31),
    ("CCN1C(=O)C2CC(=O)C3C(CN(S(=O)(=O)c4ccc(C)cc4)C3c3ccc(C)cc3)C2C1=O (stereo not drawn)", 0.728),
    ("CCOC(=O)C1=CC[C@@H](c2ccccc2)N(S(=O)(=O)c2ccc(C)cc2)[C@@H]1C#N", -1.95),
]
